The values you see were collected from patent US20250177396A1.

molecular target: PLK4 (Homo sapiens); assay: PLK4 NanoBRET target engagement assay; conditions: HEK293 T cells transfected with PLK4 NanoLuc fusion vector; K-5 tracer; 2 hrs incubation
Sequence (O00444 whole entry, the tested form may be a part): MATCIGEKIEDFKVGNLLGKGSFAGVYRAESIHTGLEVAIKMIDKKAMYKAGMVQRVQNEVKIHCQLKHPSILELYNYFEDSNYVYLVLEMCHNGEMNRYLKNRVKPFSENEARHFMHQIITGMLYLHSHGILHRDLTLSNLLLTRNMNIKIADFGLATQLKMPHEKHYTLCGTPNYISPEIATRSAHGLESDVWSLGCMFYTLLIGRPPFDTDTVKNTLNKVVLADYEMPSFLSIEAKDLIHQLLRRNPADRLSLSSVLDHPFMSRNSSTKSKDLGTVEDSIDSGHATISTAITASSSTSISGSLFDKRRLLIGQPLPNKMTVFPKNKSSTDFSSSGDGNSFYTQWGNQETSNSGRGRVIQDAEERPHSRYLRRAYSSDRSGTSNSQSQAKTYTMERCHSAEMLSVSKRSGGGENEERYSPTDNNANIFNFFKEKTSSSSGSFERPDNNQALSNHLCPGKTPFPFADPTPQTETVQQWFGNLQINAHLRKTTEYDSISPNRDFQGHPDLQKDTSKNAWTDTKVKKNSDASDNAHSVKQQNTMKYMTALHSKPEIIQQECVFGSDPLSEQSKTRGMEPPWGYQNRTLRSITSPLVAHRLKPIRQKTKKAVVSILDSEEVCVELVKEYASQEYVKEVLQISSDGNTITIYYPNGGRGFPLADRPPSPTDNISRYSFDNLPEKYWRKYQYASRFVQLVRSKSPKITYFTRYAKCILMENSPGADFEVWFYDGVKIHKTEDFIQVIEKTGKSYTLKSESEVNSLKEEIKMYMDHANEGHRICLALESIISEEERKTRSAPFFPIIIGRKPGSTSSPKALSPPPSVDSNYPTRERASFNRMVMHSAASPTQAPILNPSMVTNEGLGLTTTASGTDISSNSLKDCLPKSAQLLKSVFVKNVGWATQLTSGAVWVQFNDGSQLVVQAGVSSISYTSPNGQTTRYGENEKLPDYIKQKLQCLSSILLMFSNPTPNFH
Listed here are compounds together with their documented IC50.

>  <STRUCTURE_SMILES_STRING>
Cc1cc(Nc2nc(N(C)c3c(F)cc(S(C)(=O)=O)cc3F)nc(-c3cc4n(n3)CCOC4)c2C2CC2)n[nH]1

>  <TARGET_OR_TEST_SYSTEM>
PLK4 (Homo sapiens)

>  <LIMIT_SIGN>
=

>  <IC50 / nM>
4

$$$$
>  <STRUCTURE_SMILES_STRING>
Cc1cc(Nc2nc(N(C)c3cc(F)c(S(C)(=O)=O)cc3F)nc(-c3cn(C4CC4)c(C)n3)c2C2CC2)n[nH]1

>  <TARGET_OR_TEST_SYSTEM>
PLK4 (Homo sapiens)

>  <LIMIT_SIGN>
=

>  <IC50 / nM>
5

$$$$
>  <STRUCTURE_SMILES_STRING>
Cc1cc(Nc2nc(N(C)c3c(F)cc(S(C)(=O)=O)cc3F)nc(N3CC(n4cccn4)C3)c2C2CC2)n[nH]1

>  <TARGET_OR_TEST_SYSTEM>
PLK4 (Homo sapiens)

>  <LIMIT_SIGN>
=

>  <IC50 / nM>
45

$$$$
>  <STRUCTURE_SMILES_STRING>
Cc1cc(Nc2nc(N(C)c3cc(F)c(S(C)(=O)=O)cc3F)nc(-c3cnn(C)c3C(N)=O)c2C2CC2)n[nH]1

>  <TARGET_OR_TEST_SYSTEM>
PLK4 (Homo sapiens)

>  <LIMIT_SIGN>
=

>  <IC50 / nM>
33

$$$$
>  <STRUCTURE_SMILES_STRING>
COc1c(Nc2cc(C)[nH]n2)nc(N(C)c2ccc(C#N)cc2F)nc1-c1cnn(C)c1

>  <TARGET_OR_TEST_SYSTEM>
PLK4 (Homo sapiens)

>  <LIMIT_SIGN>
=

>  <IC50 / nM>
280

$$$$
>  <STRUCTURE_SMILES_STRING>
Cc1cc(Nc2nc(N(C)c3c(F)cc(S(C)(=O)=O)cc3F)nc(-c3cn(C)c(C)n3)c2C2CC2)n[nH]1

>  <TARGET_OR_TEST_SYSTEM>
PLK4 (Homo sapiens)

>  <LIMIT_SIGN>
=

>  <IC50 / nM>
2

$$$$
>  <STRUCTURE_SMILES_STRING>
Cc1cc(Nc2nc(N(CCO)c3c(F)cc(S(C)(=O)=O)cc3F)nc(-c3cn(C)cn3)c2C2CC2)n[nH]1

>  <TARGET_OR_TEST_SYSTEM>
PLK4 (Homo sapiens)

>  <LIMIT_SIGN>
=

>  <IC50 / nM>
34

$$$$
>  <STRUCTURE_SMILES_STRING>
COc1c(Nc2cc(C)[nH]n2)nc(N(C)c2ccc(S(C)(=O)=O)cc2)nc1-c1cnn(C)c1

>  <TARGET_OR_TEST_SYSTEM>
PLK4 (Homo sapiens)

>  <LIMIT_SIGN>
=

>  <IC50 / nM>
190

$$$$
>  <STRUCTURE_SMILES_STRING>
Cc1cc(Nc2nc(N(C)c3c(F)cc(S(C)(=O)=O)cc3F)nc(N3CC4(C3)CC(C)(O)C4)c2C2CC2)n[nH]1

>  <TARGET_OR_TEST_SYSTEM>
PLK4 (Homo sapiens)

>  <LIMIT_SIGN>
=

>  <IC50 / nM>
48

$$$$
>  <STRUCTURE_SMILES_STRING>
Cc1cc(Nc2nc(N(C)c3c(F)cc(N4CCS(=O)(=O)CC4)cc3F)nc(-c3cn(C)cn3)c2C2CC2)n[nH]1

>  <TARGET_OR_TEST_SYSTEM>
PLK4 (Homo sapiens)

>  <LIMIT_SIGN>
=

>  <IC50 / nM>
300

$$$$
>  <STRUCTURE_SMILES_STRING>
Cc1cc(Nc2nc(N(C)c3c(F)cc(S(C)(=O)=O)cc3F)nc(-c3cnn(CC(=O)N(C)C)c3)c2C2CC2)n[nH]1

>  <TARGET_OR_TEST_SYSTEM>
PLK4 (Homo sapiens)

>  <LIMIT_SIGN>
=

>  <IC50 / nM>
11

$$$$
>  <STRUCTURE_SMILES_STRING>
Cc1cc(Nc2nc(N(C)c3c(F)cc(CC(=O)N4CCC4)cc3F)nc(-c3cn(C)cn3)c2C2CC2)n[nH]1

>  <TARGET_OR_TEST_SYSTEM>
PLK4 (Homo sapiens)

>  <LIMIT_SIGN>
>

>  <IC50 / nM>
5000

$$$$
>  <STRUCTURE_SMILES_STRING>
Cc1cc(Nc2nc(N(C)c3ccc(S(C)(=O)=O)cc3F)nc(-c3cnn(C)c3)c2C)n[nH]1

>  <TARGET_OR_TEST_SYSTEM>
PLK4 (Homo sapiens)

>  <LIMIT_SIGN>
=

>  <IC50 / nM>
14

$$$$
